# Procedure Details: Solubility in water at 25° C.
# Assay type: physicochemical
# Run Conditions: 25 °C
Attribute Measured: solubility (µg/mL)
Field: numeric (µg/mL). Do not append units.

Query: For the molecule O=c1ccc2ccc(OCCCCN3CCN(c4cccc5sccc45)CC3)cc2[nH]1 [brexpiprazole dihydrate] , report solubility.
Result: 10
